tested on: human hepatocytes; experiment: Metabolic stability with human hepatocytes; type: in vitro ADME; conditions: human hepatocyte suspension, 1 μM test compound, scaled with well stirred model
Each entry below lists one item and its recorded CL (predicted human hepatic in vivo blood clearance) value.
assay readout: CL (predicted human hepatic in vivo blood clearance) (mL/min/kg)

INSERT INTO measurements (compound, numeric_readout) VALUES
  ('CNC(=O)N1C(=O)N(c2cccc(C(F)(F)F)c2)C2=C(C(=O)CC2)[C@H]1c1ccc(C#N)cc1', 3),
  ('CC(C)(O)CCNC(=O)N1C(=O)N(c2cccc(C(F)(F)F)c2)C2=C(C(=O)CC2)C1c1ccc(C#N)cc1 (stereo not drawn)', 3),
  ('CCNC(=O)N1C(=O)N(c2cccc(C(F)F)c2)C2=C(C(=O)CC2)C1c1ccc(C#N)cc1 (stereo not drawn)', 3);
